Origin of values: ChEMBL document CHEMBL1125876

Would you kindly list Control for each of these molecules?
Molecular target: Glutamate receptor ionotropic, kainate 2 (Rattus norvegicus)
Test: Compound tested for its ability to inhibit [3H]- KA binding to ionotropic glutamate receptor kainate at the concentration of 100 uM
Parameters: scale not given: the % may be the effect or the level left
Numbers only, in %.

O=C(O)[C@H]1CN[C@H](C(=O)O)C1 = 102
O=C(O)[C@@H]1CN[C@H](C(=O)O)C1 = 100
O=C(O)[C@H]1CN[C@@H](C(=O)O)C1 = 101

Let us move to another entry and its Control.
For record "O=C(O)[C@@H]1CN[C@@H](C(=O)O)C1" the listed Control is 92

---

Biological target: Glutamate NMDA receptor (Rattus norvegicus) (UniProt P35439+Q00959+Q00960+Q00961+Q62645+Q8VHN2+Q9R1M7)
Assay: Compound tested for its ability to inhibit [3H]- -L-Glu binding to N-methyl-D-aspartate glutamate receptor at the concentration of 100 uM
Format: protein-complex assay
Parameters: scale not given: the % may be the effect or the level left
readout.label: Control
Just the number plus its unit, please.

Example compounds with recorded Control:
O=C(O)[C@@H]1CN[C@@H](C(=O)O)C1 = 95%
O=C(O)[C@H]1CN[C@H](C(=O)O)C1 = 87%
O=C(O)[C@@H]1CN[C@H](C(=O)O)C1 = 89%

Now consider the entry below.
// "O=C(O)[C@H]1CN[C@@H](C(=O)O)C1" : Control value = 38%
